Numbers sourced from patent US9828373B2.

PROCEDURE_DETAILS: Pharmacokinetics in rats (iv and oral, plasma LC-MS/MS)
Type: in vivo, male SD rats
EXPERIMENTAL_SETUP: rat, plasma; male SD rats, iv, 1.0 mg/kg; read-out: Tmax
MEASURED_PROPERTY: Tmax (min)

COMPOUND	RECORDED_NUMBER
CC(=O)c1c(C)c2cnc(Nc3ccc(N4CCNCC4)cn3)nc2n(C2CCCC2)c1=O [Palbociclib, reference compound]	4.98

###

PROCEDURE_DETAILS: Pharmacokinetics in rats (iv and oral, plasma LC-MS/MS)
Type: in vivo, male SD rats
EXPERIMENTAL_SETUP: rat, plasma; male SD rats, po, 5.0 mg/kg; read-out: AUCINF

COMPOUND	AUC(0-inf) [ng·h/mL]
CC(=O)c1c(C)c2cnc(Nc3ccc(N4CCNCC4)cn3)nc2n(C2CCCC2)c1=O [Palbociclib, reference compound]	1400

###

PROCEDURE_DETAILS: Pharmacokinetics in rats (iv and oral, plasma LC-MS/MS)
Format: in vivo, male SD rats
EXPERIMENTAL_SETUP: rat, plasma; male SD rats, iv, 1.0 mg/kg; read-out: AUCINF

MOLECULE	AUC(0-inf), µg·h/mL
CC(=O)c1c(C)c2cnc(Nc3ccc(N4CCNCC4)cn3)nc2n(C2CCCC2)c1=O [Palbociclib, reference compound]	0.332

###

PROCEDURE_DETAILS: Pharmacokinetics in rats (iv and oral, plasma LC-MS/MS)
Type: in vivo, male SD rats
EXPERIMENTAL_SETUP: male, SD, rat, in vivo, iv, 1 mg/kg
MEASURED_PROPERTY: Cmax (ng/mL)

LINE_NOTATION	UNIT_NAME	RECORDED_NUMBER
CC(=O)c1c(C)c2cnc(Nc3ccc4c(n3)CCNC4)nc2n(C2CCCC2)c1=O	ng/mL	141

###

PROCEDURE_DETAILS: Pharmacokinetics in rats (iv and oral, plasma LC-MS/MS)
Type: in vivo, male SD rats
EXPERIMENTAL_SETUP: male, SD, rat, in vivo, iv, 1 mg/kg

LINE_NOTATION	UNIT_NAME	AUC(0-t)
CC(=O)c1c(C)c2cnc(Nc3ccc4c(n3)CCNC4)nc2n(C2CCCC2)c1=O	ng·h/mL	485

###

PROCEDURE_DETAILS: Pharmacokinetics in rats (iv and oral, plasma LC-MS/MS)
Type: in vivo, male SD rats
EXPERIMENTAL_SETUP: rat, plasma; male SD rats, po, 5.0 mg/kg; read-out: T1/2 (converted)
MEASURED_PROPERTY: half-life (h)

MOLECULE	RECORDED_NUMBER
CC(=O)c1c(C)c2cnc(Nc3ccc(N4CCNCC4)cn3)nc2n(C2CCCC2)c1=O [Palbociclib, reference compound]	4.28

###

PROCEDURE_DETAILS: Pharmacokinetics in rats (iv and oral, plasma LC-MS/MS)
Format: in vivo, male SD rats
EXPERIMENTAL_SETUP: male, SD, rat, in vivo, po, 5 mg/kg
Method: The assay agents and samples are as shown below: […] Grouping male SD rats weighing 190-250 g randomly to two groups; one group was administered with test compound at a dose of 1.0 mg/kg by intravenous injection, the other group was administered with test compound at a dose of 5.0 mg/kg by oral. […] Standard curve was plotted based on concentrations of the samples in a suitable range, the concentrations of test compounds in plasma samples were determined by using LC-MS/MS. […]

COMPOUND	Cmax
CC(=O)c1c(C)c2cnc(Nc3ccc4c(n3)CCNC4)nc2n(C2CCCC2)c1=O [Example 3]	293 ng/mL
